tested on: HCC-2998 colon; assay: NCI-60 one-dose screen, 48 h; details: 10 µM unless noted
The panel holds about 83,000 compounds, 20% with a hit somewhere; the sample as a whole holds those more often. Active and inactive are the calls of the source. How the source made its calls: active means growth percent below 10; inactive means the rest.
Returns: one label drawn from active, inactive

Solved cases below.
[
  {
    "compound": "NC(=S)N/N=C\\c1nccc2c(C(F)(F)F)cccc12",
    "class_name": "inactive"
  },
  {
    "compound": "CN(C)CCN(C)CC(C)(C)C(=O)/C=C/c1ccc(Cl)c(Cl)c1",
    "class_name": "active"
  },
  {
    "compound": "C/C(=N/NC(N)=S)c1ccc(C)cc1",
    "class_name": "inactive"
  },
  {
    "compound": "Cc1cc(C(=C2C=CC(=Nc3ccccc3)C=C2)c2ccc(Nc3ccccc3)cc2)ccc1N",
    "class_name": "active"
  }
]

Query: What did the test return for CCN(CC)CCNc1ccc([N+](=O)[O-])c2sc3ccccc3c(=O)c12 ?
Reply: inactive

Query: For this compound, state the assay outcome: Oc1c(C(Nc2ccccc2)c2ccccc2)ccc2cccnc12 (configuration not stated)
Reply: inactive

Query: Outcome logged for CC1(C)OC2C(COC(c3ccccc3)(c3ccccc3)c3ccccc3)OC(c3c[nH]c4c(N)ncnc34)C2O1 (configuration not stated) in this assay:
Reply: inactive

Query: # lookup: test call for CC(C)=CCCC(C)C1=C(O)C(=O)C(C)=CC1=O (configuration not stated)
Reply: inactive

Query: Write down the call the test reported for this compound. Item: NC(=S)Nc1ccc2c(c1)Cc1ccccc1-2
Reply: inactive

----------
system: HT29 colon; test: NCI-60 one-dose screen, 48 h (100 = growth as untreated, 0 = no growth, -100 = all killed); conditions: 10 µM unless noted
The panel holds about 83,000 compounds, 20% with a hit somewhere; the sample as a whole holds those more often.
Labelling field: enter Fulfilled if recorded growth is less than -20%. Enter Not fulfilled if it equals or exceeds that cut-off.

Completed entries (count: 5):
[
  {
    "compound": "CCOc1ccc(C(C[N+](=O)[O-])Sc2ccccc2N)cc1 (centres undefined)",
    "experimental_target": "HT29 colon",
    "class_name": "Fulfilled"
  },
  {
    "compound": "CCOC(=O)c1[nH]c(C#N)c(C(=O)OCC)c1C",
    "experimental_target": "HT29 colon",
    "class_name": "Not fulfilled"
  },
  {
    "compound": "CCCCCCCCCCCCCCCCCC[S+](C)CC (centres undefined)",
    "experimental_target": "HT29 colon",
    "class_name": "Not fulfilled"
  },
  {
    "compound": "O=C(O)c1ccc2c(c1)C(=O)c1ccccc1C2=O",
    "experimental_target": "HT29 colon",
    "class_name": "Not fulfilled"
  },
  {
    "compound": "COc1cc(OC)c(/C=C/c2c3ccccc3cc[n+]2C)c(OC)c1",
    "experimental_target": "HT29 colon",
    "class_name": "Not fulfilled"
  }
]

Query: Consider the compound CCCCCCCCCCCCCCCCSC(=NCC)NCC . Is its growth strictly less than -20%?
Reply: Fulfilled

Query: API: query returns whether the compound falls strictly under -20% in growth. Query: O=C(OC12CC3CC(CC(C3)C1)C2)c1ccc(NCc2cc(O)ccc2O)cc1
Reply: Not fulfilled

Query: Determine if Nc1ccc(Oc2ccccc2)c(Cl)c1 shows growth strictly lower than -20%.
Reply: Not fulfilled

Query: Dear colleague, could you confirm whether growth of CCCCCCCCCCCCSC(=N)N falls below -20%? Thanks.
Reply: Fulfilled

Query: Would you kindly verify if growth of O=[N+]([O-])c1ccc(C2N(Cc3ccc(Cl)cc3)CCN2Cc2ccc(Cl)cc2)cc1 is strictly less than -20%?
Reply: Not fulfilled

Query: Would you kindly verify if growth of CCCCCCN(CCCCCC)CCCNc1nccc2ccccc12 is strictly less than -20%?
Reply: Not fulfilled

Query: Check if growth falls below -20% for O=C(Cc1nc2cc(Cl)c(Cl)cc2nc1CC(=O)c1cccnc1)c1cccnc1 .
Reply: Not fulfilled

Query: Determine if CCCCN(CCCC)CCCCCCCCCCO shows growth strictly lower than -20%.
Reply: Not fulfilled

Query: Is growth strictly under -20% for the entry COc1ccc2nc3cc(Cl)ccc3c(NCCCCCN3CCCCC3)c2c1 ?
Reply: Fulfilled

Query: Check if growth falls below -20% for Nc1cccc2cccc([N+](=O)[O-])c12 .
Reply: Not fulfilled

Query: Decide: growth of CCCCCCCCC(=O)OCCCC(CCC(CCC1CCCO1)OC(=O)CCCCCCCC)OC(=O)CCCCCCCC (centres undefined) strictly below -20%?
Reply: Not fulfilled

Query: Please let me know if CCCC[n+]1c(/C=C\c2c(OC)cc(OC)cc2OC)ccc2ccccc21 shows growth below -20%.
Reply: Fulfilled

Query: # TODO verify growth < -20% strictly for this compound: O=C(CBr)c1ccc(OC(=O)c2ccccc2)cc1
Reply: Not fulfilled

Query: Lab note: growth threshold -20%. Does this compound come in strictly under it? c1ccc(-c2cc3cc4ccccc4cn3c2)cc1
Reply: Not fulfilled
